target: Mu-type opioid receptor (Homo sapiens, UniProt P35372); assay: DRUGMATRIX: Opiate mu (OP3, MOP) radioligand binding (ligand: [3H] Diprenorphine); format: cell membranes, CHO-K1, Membrane; settings: cho-k1; Not Active = under 50% inhibition at 10 µM
Sequence (P35372 whole entry): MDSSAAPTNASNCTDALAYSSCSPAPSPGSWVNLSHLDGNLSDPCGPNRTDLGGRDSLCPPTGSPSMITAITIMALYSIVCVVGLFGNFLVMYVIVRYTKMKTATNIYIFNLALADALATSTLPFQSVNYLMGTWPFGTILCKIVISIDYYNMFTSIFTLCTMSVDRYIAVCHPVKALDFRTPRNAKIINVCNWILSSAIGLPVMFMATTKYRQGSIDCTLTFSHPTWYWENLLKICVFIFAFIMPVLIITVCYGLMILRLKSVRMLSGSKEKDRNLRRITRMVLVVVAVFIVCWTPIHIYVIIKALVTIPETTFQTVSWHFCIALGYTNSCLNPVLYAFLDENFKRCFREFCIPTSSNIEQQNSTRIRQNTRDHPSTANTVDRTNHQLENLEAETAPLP
Reported Metric: IC50

CNCCC(Oc1ccc(C(F)(F)F)cc1)c1ccccc1 (stereo not given) ... Not Active
Cc1c(OCC(F)(F)F)ccnc1C[S+]([O-])c1nc2ccccc2[nH]1 (stereo not given) ... Not Active
Clc1ccccc1CN1CCc2sccc2C1 ... Not Active
C[n+]1ccccc1/C=N/O.[Cl-] [PRALIDOXIME CHLORIDE] ... Not Active
COC(=O)CCc1ccc(OCC(O)CNC(C)C)cc1 (stereo not given) ... Not Active
NNc1nncc2ccccc12 [HYDRALAZINE] ... Not Active
O=C(Oc1ccccc1C(=O)O)c1ccccc1O [SALSALATE] ... Not Active
O=C(c1ccccc1C(F)(F)F)N1CCC(Cc2ccccc2)CC1 ... Not Active
COc1ccc2[nH]cc(CCNC(C)=O)c2c1 ... Not Active
O.O.O.O.O.O.[Cl-].[Cl-].[Sr+2] [STRONTIUM CHLORIDE HEXAHYDRATE] ... Not Active

Given the molecule `Brc1c(NC2=NCCN2)ccc2nccnc12` and test system Mu-type opioid receptor (Homo sapiens, UniProt P35372), the measured IC50 is Not Active

# `CCCN(CCC)S(=O)(=O)c1ccc(C(=O)O)cc1` with Mu-type opioid receptor (Homo sapiens, UniProt P35372): IC50 is Not Active

`CN(C)[C@@H]1C(O)=C(C(N)=O)C(=O)[C@@]2(O)C(O)=C3C(=O)c4c(O)ccc(Cl)c4[C@@](C)(O)[C@H]3C[C@@H]12` tested on Mu-type opioid receptor (Homo sapiens, UniProt P35372) gave IC50: Not Active

For CCCNCC(O)COc1ccccc1C(=O)CCc1ccccc1 (stereo not given) on Mu-type opioid receptor (Homo sapiens, UniProt P35372), measured IC50 was Not Active

For the molecule `CN/C(=N\CCSCc1nc[nH]c1C)NC#N` , the measured IC50 on Mu-type opioid receptor (Homo sapiens, UniProt P35372) was Not Active

Simply: `C[C@@H]1C[C@H]2[C@@H]3CCC4=CC(=O)C=C[C@]4(C)[C@@]3(F)[C@@H](O)C[C@]2(C)[C@@]1(O)C(=O)CO` , Mu-type opioid receptor (Homo sapiens, UniProt P35372), IC50 = Not Active

Observed IC50 on Mu-type opioid receptor (Homo sapiens, UniProt P35372), entry `CC(C)c1cccc(C(C)C)c1O` , equals Not Active

Here `CC(C)=CCC/C(C)=C/CO` was tested on Mu-type opioid receptor (Homo sapiens, UniProt P35372), and its IC50 came to Not Active

Assay Mu-type opioid receptor (Homo sapiens, UniProt P35372), sample `CC[C@H]1CN2CCc3cc(OC)c(OC)cc3[C@@H]2C[C@@H]1C[C@H]1NCCc2cc(OC)c(OC)cc21` , IC50 read: Not Active

The molecule `CN(C)CC[C@@H](c1ccc(Cl)cc1)c1ccccn1` , when measured on Mu-type opioid receptor (Homo sapiens, UniProt P35372), yielded IC50 of Not Active
